# tgt: KRAS-G12V (Homo sapiens, UniProt P01116, G12V)
# Sequence (P01116 with tags, fused parts or gaps isoform P01116-2 G12V): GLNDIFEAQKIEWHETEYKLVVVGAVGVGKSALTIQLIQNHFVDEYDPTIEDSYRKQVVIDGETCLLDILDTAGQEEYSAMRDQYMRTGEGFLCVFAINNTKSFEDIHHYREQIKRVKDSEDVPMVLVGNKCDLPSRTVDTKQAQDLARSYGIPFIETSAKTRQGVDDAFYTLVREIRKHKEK
# assay.procedure: SOS-catalyzed nucleotide exchange assay (Procedure A, TR-FRET), KRAS-G12V
# Assay type: biochemical
# condition.notes: nucleotide exchange, read-out: KRAS G12V GNE IC50
Measured IC50 values are reported for all entries that follow.
Note: unit nM is implicit; provide only the numeric part.

# count of solved cases: 5
compound="Cc1cc2[nH]ncc2c(-c2nccc3c2sc2nc(OC[C@@]45CCCN4C[C@H](F)C5)nc(N4CCOC[C@@](C)(O)C4)c23)c1C1CC1(F)F (stereo partly drawn) [Ex-63]" unit_annotation=nM reported_result=39.3
compound="[2H]C1([2H])CC[C@]2(COc3nc(N4CCOC[C@@](C)(O)C4)c4c(n3)sc3c(-c5c(C6CC6)c(Cl)cc6[nH]ncc56)nccc34)N1C[C@H](F)C2([2H])[2H] [Ex-210]" unit_annotation=nM reported_result=14.1
compound="Cc1cc2[nH]ncc2c(-c2nccc3c2sc2nc(OC[C@@]45CCCN4C[C@H](F)C5)nc(N4CCOCC5(CC(C)O5)C4)c23)c1C(F)(F)F (stereo partly drawn) [Ex-199]" unit_annotation=nM reported_result=92.6
compound="Cc1nc2[nH]ncc2c(-c2nccc3c4c(N5CCOC[C@@](C)(O)C5)nc(OC[C@@]56CCCN5C[C@H](F)C6)nc4n(C)c23)c1C(F)(F)F [Ex-14]" unit_annotation=nM reported_result=404
compound="Cc1cc2[nH]ncc2c(-c2nccc3c2sc2nc(OC[C@@]45CCCN4C[C@H](F)C5)nc(N4CCOCC5(CCCO5)C4)c23)c1C(F)(F)F (stereo partly drawn) [Ex-197]" unit_annotation=nM reported_result=186

Proceed to the following item.
Give the measured IC50 of C[C@@]1(O)COCCN(c2nc(OC[C@]3(CN4CCC5(CC5)C4)CC3(F)F)nc3sc4c(-c5c(C6(F)CC6)c(Cl)cc6[nH]ncc56)nccc4c23)C1 [Ex-262] .
26.7
